# Test system: HEK293
# Protocol: Antiproliferative activity against HEK293 cells after 24 hrs by MTT assay
# Format: cell-based
# Test context: Homo sapiens, HEK293, 24 h
Recorded metric: IC50 (µM)
Please respond with the number in µM and leave the unit unwritten.

*Q* What does the record list as IC50 for COc1cc(-c2cc(C(=O)/C=C/c3ccccc3)nc3cc(-c4ccccc4)nn23)cc(OC)c1OC ?
*A* 44.8

*Q* What does the record list as IC50 for COc1ccc(/C=C/C(=O)c2cc(-c3cc(OC)c(OC)c(OC)c3)n3nc(-c4ccccc4)cc3n2)cc1 ?
*A* 46.6

*Q* What does the record list as IC50 for COc1ccc(C(=O)/C=C/c2cc(-c3ccc(OC)c(OC)c3)n3nc(-c4ccccc4)cc3n2)cc1 ?
*A* 40

*Q* What does the record list as IC50 for COc1ccc(C(=O)/C=C/c2cc(-c3cc(OC)c(OC)c(OC)c3)n3nc(-c4ccccc4)cc3n2)cc1 ?
*A* 79.8

*Q* What does the record list as IC50 for COc1ccc(-c2cc(C(=O)/C=C/c3ccccc3)nc3cc(-c4ccccc4)nn23)cc1OC ?
*A* 64.1

*Q* What does the record list as IC50 for COc1ccc(-c2cc(/C=C/C(=O)c3ccccc3)nc3cc(-c4ccccc4)nn23)cc1OC ?
*A* 51.2

*Q* What does the record list as IC50 for COc1cc(-c2cc(C(=O)/C=C/c3ccc(C)cc3)nc3cc(-c4ccccc4)nn23)cc(OC)c1OC ?
*A* 56.1

*Q* What does the record list as IC50 for COc1ccc(-c2cc(/C=C/C(=O)c3ccc(OC)c(OC)c3)nc3cc(-c4ccccc4)nn23)cc1 ?
*A* 48.5

New cases:
*Q* What does the record list as IC50 for COc1ccc(-c2cc(/C=C/C(=O)c3cc(OC)c(OC)c(OC)c3)nc3cc(-c4ccccc4)nn23)cc1OC ?
*A* 35

*Q* What does the record list as IC50 for COc1ccc(-c2cc(C(=O)/C=C/c3ccc(C)cc3)nc3cc(-c4ccccc4)nn23)cc1OC ?
*A* 57.4

---

# System: A549
# Protocol: Antiproliferative activity against human A549 cells after 24 hrs by MTT assay
# Format: functional, cell-based
# Test context: A549, 24 h
Recorded metric: IC50 (µM)
Please respond with the number in µM and leave the unit unwritten.

Answered cases to consult:
*Q* What does the record list as IC50 for COc1ccc(-c2cc(C(=O)/C=C/c3ccc(C)cc3)nc3cc(-c4ccccc4)nn23)cc1OC ?
*A* 22.2

*Q* What does the record list as IC50 for COc1cc(-c2cc(/C=C/C(=O)c3ccc(Cl)cc3)nc3cc(-c4ccccc4)nn23)cc(OC)c1OC ?
*A* 15.5

*Q* What does the record list as IC50 for COc1cc(/C=C/C(=O)c2cc(-c3cc(OC)c(OC)c(OC)c3)n3nc(-c4ccccc4)cc3n2)cc(OC)c1OC ?
*A* 25.9

New cases:
*Q* What does the record list as IC50 for COc1cc(-c2cc(/C=C/C(=O)c3ccccc3)nc3cc(-c4ccccc4)nn23)cc(OC)c1OC ?
*A* 18.2

*Q* What does the record list as IC50 for COc1ccc(/C=C/C(=O)c2cc(-c3cc(OC)c(OC)c(OC)c3)n3nc(-c4ccccc4)cc3n2)cc1OC ?
*A* 20.5

*Q* What does the record list as IC50 for COc1cc(-c2cc(/C=C/C(=O)c3ccc(C)cc3)nc3cc(-c4ccccc4)nn23)cc(OC)c1OC ?
*A* 19.4

*Q* What does the record list as IC50 for COc1ccc(-c2cc(/C=C/C(=O)c3ccc(Cl)cc3)nc3cc(-c4ccccc4)nn23)cc1OC ?
*A* 15.4

*Q* What does the record list as IC50 for COc1ccc(/C=C/C(=O)c2cc(-c3ccc(OC)c(OC)c3)n3nc(-c4ccccc4)cc3n2)cc1 ?
*A* 19.3

*Q* What does the record list as IC50 for COc1ccc(-c2cc(C(=O)/C=C/c3cc(OC)c(OC)c(OC)c3)nc3cc(-c4ccccc4)nn23)cc1OC ?
*A* 15.4

*Q* What does the record list as IC50 for COc1ccc(/C=C/C(=O)c2cc(-c3cc(OC)c(OC)c(OC)c3)n3nc(-c4ccccc4)cc3n2)cc1 ?
*A* 21.2

*Q* What does the record list as IC50 for COc1ccc(-c2cc(/C=C/C(=O)c3ccc(C)c(C)c3)nc3cc(-c4ccccc4)nn23)cc1OC ?
*A* 9.3

*Q* What does the record list as IC50 for COc1ccc(-c2cc(/C=C/C(=O)c3ccccc3)nc3cc(-c4ccccc4)nn23)cc1 ?
*A* 8.6

*Q* What does the record list as IC50 for COc1ccc(-c2cc(/C=C/C(=O)c3ccc(C)cc3)nc3cc(-c4ccccc4)nn23)cc1OC ?
*A* 17.2

*Q* What does the record list as IC50 for COc1ccc(C(=O)/C=C/c2cc(-c3ccc(OC)c(OC)c3)n3nc(-c4ccccc4)cc3n2)cc1 ?
*A* 11.9

*Q* What does the record list as IC50 for COc1ccc(C(=O)/C=C/c2cc(-c3ccc(OC)c(OC)c3)n3nc(-c4ccccc4)cc3n2)cc1OC ?
*A* 3.9

*Q* What does the record list as IC50 for COc1ccc(-c2cc(/C=C/C(=O)c3ccc(OC)c(OC)c3)nc3cc(-c4ccccc4)nn23)cc1 ?
*A* 7.4

*Q* What does the record list as IC50 for COc1ccc(-c2cc(/C=C/C(=O)c3ccccc3)nc3cc(-c4ccccc4)nn23)cc1OC ?
*A* 10.7

Numbers sourced from ChEMBL document CHEMBL4257446.
